kon values, listed per item
Molecular target: T1, ARM repeat domain of human β-catenin (residues 134–671) (human, UniProt P35222 134-671)
T1 construct: β-catenin, human, ARM repeat domain, residues 134–671; Plasmid was a gift from W.I. Weis; source: E. coli C41, purified (glutathione-Sepharose 4B, thrombin cleavage on resin, Mono-Q)
T1 sequence (looked up): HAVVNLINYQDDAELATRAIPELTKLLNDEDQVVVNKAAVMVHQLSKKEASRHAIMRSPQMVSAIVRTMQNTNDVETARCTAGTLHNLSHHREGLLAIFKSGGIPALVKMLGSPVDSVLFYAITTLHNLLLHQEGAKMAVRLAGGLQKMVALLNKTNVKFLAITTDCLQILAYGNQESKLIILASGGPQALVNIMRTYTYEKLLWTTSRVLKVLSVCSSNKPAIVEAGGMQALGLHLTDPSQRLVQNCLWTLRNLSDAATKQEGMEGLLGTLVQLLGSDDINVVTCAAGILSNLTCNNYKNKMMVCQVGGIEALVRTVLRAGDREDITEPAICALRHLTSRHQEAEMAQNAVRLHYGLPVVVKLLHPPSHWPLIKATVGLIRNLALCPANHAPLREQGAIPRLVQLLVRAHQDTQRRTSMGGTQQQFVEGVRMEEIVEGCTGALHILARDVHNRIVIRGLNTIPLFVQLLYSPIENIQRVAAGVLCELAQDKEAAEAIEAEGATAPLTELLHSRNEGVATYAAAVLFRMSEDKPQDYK
Experiment: stopped-flow fluorescence kinetics (association); 10 nM fluorescein-labelled TCF7L2 mixed 1:1 with 100–1000 nM unlabelled β-catenin, pseudo-first-order; PBS, 1 mM DTT, 15 °C; kon from the linear fit of kobs against β-catenin concentration
Details: both partners purified
No end group written: not given here.
Give just the numeric value; M⁻¹ s⁻¹ need not be written.

>>> observedvalue("TCF7L2 (1–54) S31C L48A, fluorescein-labelled (domain or fragment, UniProt Q9NQB0 1-54, looked up, One extra serine is left behind after thrombin cleavage of the tag; source: E. coli C41, purified (Ni-NTA, thrombin cleavage, Superdex 75), labelled with fluorescein maleimide) MPQLNGGGGDDLGANDELISFKDEGEQEEKC(fluorescein maleimide)SENSSAERDLADVKSSAVNESET")
"5.67e+07"
>>> observedvalue("TCF7L2 (1–54) S31C E28A, fluorescein-labelled (domain or fragment, UniProt Q9NQB0 1-54, looked up, One extra serine is left behind after thrombin cleavage of the tag; source: E. coli C41, purified (Ni-NTA, thrombin cleavage, Superdex 75), labelled with fluorescein maleimide) MPQLNGGGGDDLGANDELISFKDEGEQAEKC(fluorescein maleimide)SENSSAERDLADVKSSLVNESET")
"5.84e+07"

Let's switch to this binder now.
Record TCF7L2 (1–54) S31C, labelled with fluorescein maleimide at Cys31 (domain or fragment, UniProt Q9NQB0 1-54, looked up, One extra serine is left behind after thrombin cleavage of the tag; also called fluorescein-labelled WT; fluorescent-labelled WT TCF7L2 (1–54); source: E. coli C41, purified (Ni-NTA, thrombin cleavage, Superdex 75), labelled with fluorescein maleimide) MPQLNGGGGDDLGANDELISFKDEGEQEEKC(fluorescein maleimide)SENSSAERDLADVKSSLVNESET , field kon: 7.33e+07

The values you see were collected from paper PMC8228192.
